System: Klebsiella pneumoniae
Test: Antibacterial activity against Klebsiella pneumoniae ATCC 13883 by serial dilution method
Format: functional
The compounds listed here are annotated with their MIC.
Write the answer as a number in µg/mL, unit excluded.

COc1cc(S(=O)(=O)N2CCCCC2)ccc1-n1cnc2c(=O)[nH]c(N)nc21 32

Please find the next compound below.
// query MIC value for entry Nc1nc2c(ncn2-c2ccc(S(=O)(=O)N3CCCCC3)cc2Cl)c(=O)[nH]1
16

----------
Tested on: Staphylococcus aureus
Test: Antibacterial activity against Staphylococcus aureus ATCC 25923 by serial dilution method
Format: functional
The compounds listed here are annotated with their MIC.
Write the answer as a number in µg/mL, unit excluded.

Nc1nc2c(ncn2-c2ccc(S(=O)(=O)N3CCCCC3)cc2)c(=O)[nH]1 64

// query MIC value for entry COc1cc(S(=O)(=O)N2CCC(C)CC2)ccc1-n1cnc2c(=O)[nH]c(N)nc21
32

// query MIC value for entry CC1CCN(S(=O)(=O)c2ccc(-n3cnc4c(=O)[nH]c(N)nc43)c(Cl)c2)CC1
4

// query MIC value for entry CC1CCN(S(=O)(=O)c2ccc(-n3cnc4c(=O)[nH]c(N)nc43)cc2)CC1
64
